METHOD_DESCRIPTION: Stability of compound in fasted-state simulated gastric fluid incubated for 1 day
Type: ADME
MEASUREMENT_SETUP: read-out: Stability
REPORTED_METRIC: remaining at 24 h (%)
Numeric only. Scale: %

[in] Provide one value: measured remaining at 24 h of CCCSc1nc(N/N=C/c2cccc(O)c2)c2nnn([C@@H]3C[C@H](O)[C@@H](O)[C@H]3O)c2n1
[out] 96.7

* * *

TARGET: P2Y purinoceptor 12 (Homo sapiens, UniProt Q9H244)
Sequence (Q9H244 whole entry): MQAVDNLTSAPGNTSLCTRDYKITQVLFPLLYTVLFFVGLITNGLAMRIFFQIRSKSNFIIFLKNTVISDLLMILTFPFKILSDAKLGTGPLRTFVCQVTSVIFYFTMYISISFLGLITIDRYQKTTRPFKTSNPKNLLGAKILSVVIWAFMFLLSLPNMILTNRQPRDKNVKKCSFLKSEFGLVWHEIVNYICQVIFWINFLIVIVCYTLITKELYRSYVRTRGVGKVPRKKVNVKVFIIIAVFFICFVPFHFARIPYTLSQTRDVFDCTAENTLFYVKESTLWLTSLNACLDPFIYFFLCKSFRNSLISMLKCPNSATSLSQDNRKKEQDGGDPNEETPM
METHOD_DESCRIPTION: Inhibition of P2Y12 receptor in human platelet assessed as reduction in ADP-induced VASP phosphorylation by flow cytometry
Assay type: functional, cell-based
REPORTED_METRIC: IC50
Your answer should be a number followed by the unit of measure.

[in] Provide one value: measured IC50 of CCCSc1nc(N/N=C/c2cccc(O)c2)c2nnn([C@@H]3C[C@H](O)[C@@H](O)[C@H]3O)c2n1
[out] 46 nM

[in] Provide one value: measured IC50 of CCCSc1nc(N[C@@H]2C[C@H]2c2ccc(F)c(F)c2)c2nnn([C@@H]3C[C@H](OCCO)[C@@H](O)[C@H]3O)c2n1 [TICAGRELOR]
[out] 39 nM
